tested on: A549; test: Growth inhibition of human A549 cells after 48 hrs by SRB assay; assay type: functional; conditions: A549, 48 h
Measured endpoint: GI50 (µM)

[[record]]
compound = "COc1ccc(/C=C\\c2cc(OC)c(OC)c(OC)c2)cc1OCC(=O)Nc1nc2ccc(OC(F)(F)F)cc2s1"
measured_endpoint = "GI50"
test_value = 6

[[record]]
compound = "COc1ccc(/C=C\\c2cc(OC)c(OC)c(OC)c2)cc1OCC(=O)Nc1ccc2nc(C)sc2c1"
measured_endpoint = "GI50"
test_value = 2.1

[[record]]
compound = "COc1ccc2nc(NC(=O)COc3cc(/C=C\\c4cc(OC)c(OC)c(OC)c4)ccc3OC)sc2c1"
measured_endpoint = "GI50"
test_value = 5.19

[[record]]
compound = "COc1ccc(/C=C\\c2cc(OC)c(OC)c(OC)c2)cc1O [COMBRETASTATIN A4]"
measured_endpoint = "GI50"
test_value = 0.015

[[record]]
compound = "COc1ccc(/C=C\\c2cc(OC)c(OC)c(OC)c2)cc1OCC(=O)Nc1nc2ccccc2s1"
measured_endpoint = "GI50"
test_value = 0.34

[[record]]
compound = "COc1ccc(/C=C\\c2cc(OC)c(OC)c(OC)c2)cc1OCC(=O)Nc1nc2ccc(F)cc2s1"
measured_endpoint = "GI50"
test_value = 5.99

[[record]]
compound = "COc1ccc(/C=C\\c2cc(OC)c(OC)c(OC)c2)cc1OCC(=O)Nc1nc2ccc(C(F)(F)F)cc2s1"
measured_endpoint = "GI50"
test_value = 4.46


###

tested on: SK-OV-3; assay: Growth inhibition of human SKOV3 cells after 48 hrs by SRB assay; type: functional; settings: SK-OV-3, 48 h
GI50 strictly less than 5 µM = fulfilled. Otherwise not fulfilled.

[[record]]
compound = "COc1ccc2nc(NC(=O)COc3cc(/C=C\\c4cc(OC)c(OC)c(OC)c4)ccc3OC)sc2c1"
group_label = "fulfilled"

[[record]]
compound = "COc1ccc(/C=C\\c2cc(OC)c(OC)c(OC)c2)cc1OCC(=O)Nc1nc2ccc(F)cc2s1"
group_label = "not fulfilled"

[[record]]
compound = "COc1ccc(/C=C\\c2cc(OC)c(OC)c(OC)c2)cc1OCC(=O)Nc1ccc2nc(C)sc2c1"
group_label = "not fulfilled"

[[record]]
compound = "COc1ccc(/C=C\\c2cc(OC)c(OC)c(OC)c2)cc1OCC(=O)Nc1nc2ccccc2s1"
group_label = "fulfilled"

[[record]]
compound = "COc1ccc(/C=C\\c2cc(OC)c(OC)c(OC)c2)cc1O [COMBRETASTATIN A4]"
group_label = "fulfilled"

[[record]]
compound = "COc1ccc(/C=C\\c2cc(OC)c(OC)c(OC)c2)cc1OCC(=O)Nc1nc2ccc(C(F)(F)F)cc2s1"
group_label = "fulfilled"

[[record]]
compound = "COc1ccc(/C=C\\c2cc(OC)c(OC)c(OC)c2)cc1OCC(=O)Nc1nc2ccc(OC(F)(F)F)cc2s1"
group_label = "not fulfilled"


###

system: CCRF-CEM; assay: Growth inhibition of human CCRF-CEM cells after 48 hrs by SRB assay; type: functional
Response field label takes Fulfilled when GI50 is strictly below 4 µM and Not fulfilled in all other cases.

[[record]]
smiles = "COc1ccc(/C=C\\c2cc(OC)c(OC)c(OC)c2)cc1OCC(=O)Nc1nc2ccc(C(F)(F)F)cc2s1"
tested_system = "CCRF-CEM"
group_label = "Not fulfilled"

[[record]]
smiles = "COc1ccc2nc(NC(=O)COc3cc(/C=C\\c4cc(OC)c(OC)c(OC)c4)ccc3OC)sc2c1"
tested_system = "CCRF-CEM"
group_label = "Fulfilled"

[[record]]
smiles = "COc1ccc(/C=C\\c2cc(OC)c(OC)c(OC)c2)cc1OCC(=O)Nc1ccc2nc(C)sc2c1"
tested_system = "CCRF-CEM"
group_label = "Fulfilled"

[[record]]
smiles = "COc1ccc(/C=C\\c2cc(OC)c(OC)c(OC)c2)cc1O"
tested_system = "CCRF-CEM"
group_label = "Fulfilled"

[[record]]
smiles = "COc1ccc(/C=C\\c2cc(OC)c(OC)c(OC)c2)cc1OCC(=O)Nc1nc2ccccc2s1"
tested_system = "CCRF-CEM"
group_label = "Fulfilled"

[[record]]
smiles = "COc1ccc(/C=C\\c2cc(OC)c(OC)c(OC)c2)cc1OCC(=O)Nc1nc2ccc(F)cc2s1"
tested_system = "CCRF-CEM"
group_label = "Fulfilled"

[[record]]
smiles = "COc1ccc(/C=C\\c2cc(OC)c(OC)c(OC)c2)cc1OCC(=O)Nc1nc2ccc(OC(F)(F)F)cc2s1"
tested_system = "CCRF-CEM"
group_label = "Not fulfilled"


###

# Activity annotations
test system: MCF7; assay: Cell cycle arrest in human MCF7 cells assessed as accumulation at G2/M phase at 4 uM after 24 hrs by FACS analysis (reference value: 34.88%); type: functional
Measured endpoint: Activity (%)

[[record]]
smiles = "COc1ccc(/C=C\\c2cc(OC)c(OC)c(OC)c2)cc1OCC(=O)Nc1nc2ccc(C)cc2s1"
measured_endpoint = "Activity"
unit_name = "%"
test_value = 42.82

[[record]]
smiles = "COc1ccc(/C=C\\c2cc(OC)c(OC)c(OC)c2)cc1OCC(=O)Nc1nc2ccc(OC(F)(F)F)cc2s1"
measured_endpoint = "Activity"
unit_name = "%"
test_value = 33.45

[[record]]
smiles = "COc1ccc2nc(NC(=O)COc3cc(/C=C\\c4cc(OC)c(OC)c(OC)c4)ccc3OC)sc2c1"
measured_endpoint = "Activity"
unit_name = "%"
test_value = 30.07

[[record]]
smiles = "COc1ccc(/C=C\\c2cc(OC)c(OC)c(OC)c2)cc1OCC(=O)Nc1nc2ccccc2s1"
measured_endpoint = "Activity"
unit_name = "%"
test_value = 46


###

tested on: IGROV-1; test: Growth inhibition of human IGROV1 cells after 48 hrs by SRB assay; format: functional; details: IGROV-1, 48 h
Parameter GI50: see the listing below.
Measured endpoint: GI50 (µM)

[[record]]
smiles = "COc1ccc(/C=C\\c2cc(OC)c(OC)c(OC)c2)cc1O"
measured_endpoint = "GI50"
unit_name = "µM"
test_value = 0.015

[[record]]
smiles = "COc1ccc(/C=C\\c2cc(OC)c(OC)c(OC)c2)cc1OCC(=O)Nc1nc2ccc(C(F)(F)F)cc2s1"
measured_endpoint = "GI50"
unit_name = "µM"
test_value = 4.48

[[record]]
smiles = "COc1ccc(/C=C\\c2cc(OC)c(OC)c(OC)c2)cc1OCC(=O)Nc1nc2ccc(F)cc2s1"
measured_endpoint = "GI50"
unit_name = "µM"
test_value = 4.17


###

system: MCF7; assay: Cell cycle arrest in human MCF7 cells assessed as accumulation at G1 phase at 4 uM after 24 hrs by FACS analysis (reference value: 58.33%); assay type: functional
Give 1 when the value for Activity is at least 60%. Give 0 when it is less.

[[record]]
smiles = "COc1ccc(/C=C\\c2cc(OC)c(OC)c(OC)c2)cc1OCC(=O)Nc1ccc2nc(C)sc2c1"
group_label = 0

[[record]]
smiles = "COc1ccc(/C=C\\c2cc(OC)c(OC)c(OC)c2)cc1OCC(=O)Nc1nc2ccc(C(F)(F)F)cc2s1"
group_label = 0

[[record]]
smiles = "COc1ccc(/C=C\\c2cc(OC)c(OC)c(OC)c2)cc1O"
group_label = 0

[[record]]
smiles = "COc1ccc2nc(NC(=O)COc3cc(/C=C\\c4cc(OC)c(OC)c(OC)c4)ccc3OC)sc2c1"
group_label = 1

[[record]]
smiles = "COc1ccc(/C=C\\c2cc(OC)c(OC)c(OC)c2)cc1OCC(=O)Nc1nc2c(C)cccc2s1"
group_label = 1

[[record]]
smiles = "COc1ccc(/C=C\\c2cc(OC)c(OC)c(OC)c2)cc1OCC(=O)Nc1nc2ccccc2s1"
group_label = 0

[[record]]
smiles = "COc1ccc(/C=C\\c2cc(OC)c(OC)c(OC)c2)cc1OCC(=O)Nc1nc2ccc(F)cc2s1"
group_label = 0

[[record]]
smiles = "COc1ccc(/C=C\\c2cc(OC)c(OC)c(OC)c2)cc1OCC(=O)Nc1nc2cc(C)c(C)cc2s1"
group_label = 1

[[record]]
smiles = "COc1ccc(/C=C\\c2cc(OC)c(OC)c(OC)c2)cc1OCC(=O)Nc1nc2ccc(C)cc2s1"
group_label = 0

[[record]]
smiles = "CCOc1ccc2nc(NC(=O)COc3cc(/C=C\\c4cc(OC)c(OC)c(OC)c4)ccc3OC)sc2c1"
group_label = 0


###

test system: MCF7; test: Cytotoxicity against human MCF7 cells after 48 hrs assessed as inhibition of cell growth at 10 uM after 48 hrs by SRB assay relative to control; format: functional; conditions: MCF7, 48 h, read-out: GI
Measured endpoint: inhibition of growth at 10 µM (%)

[[record]]
smiles = "COc1cccc2c1C(=O)c1c(O)c3c(c(O)c1C2=O)C[C@@](O)(C(=O)CO)C[C@@H]3O[C@H]1C[C@H](N)[C@H](O)[C@H](C)O1"
measured_endpoint = "inhibition of growth at 10 µM"
test_value = 45

[[record]]
smiles = "COc1ccc(/C=C\\c2cc(OC)c(OC)c(OC)c2)cc1OCC(=O)Nc1nc2ccccc2s1"
measured_endpoint = "inhibition of growth at 10 µM"
test_value = 72

[[record]]
smiles = "COc1ccc(/C=C\\c2cc(OC)c(OC)c(OC)c2)cc1O"
measured_endpoint = "inhibition of growth at 10 µM"
test_value = 71

[[record]]
smiles = "COc1ccc(/C=C\\c2cc(OC)c(OC)c(OC)c2)cc1OCC(=O)Nc1ccc2nc(C)sc2c1"
measured_endpoint = "inhibition of growth at 10 µM"
test_value = 52

[[record]]
smiles = "COc1ccc(/C=C\\c2cc(OC)c(OC)c(OC)c2)cc1OCC(=O)Nc1nc2ccc(C)cc2s1"
measured_endpoint = "inhibition of growth at 10 µM"
test_value = 57

[[record]]
smiles = "COc1ccc(/C=C\\c2cc(OC)c(OC)c(OC)c2)cc1OCC(=O)Nc1nc2ccc([N+](=O)[O-])cc2s1"
measured_endpoint = "inhibition of growth at 10 µM"
test_value = 69

[[record]]
smiles = "COc1ccc(/C=C\\c2cc(OC)c(OC)c(OC)c2)cc1OCC(=O)Nc1nc2ccc(F)cc2s1"
measured_endpoint = "inhibition of growth at 10 µM"
test_value = 56

[[record]]
smiles = "COc1ccc(/C=C\\c2cc(OC)c(OC)c(OC)c2)cc1OCC(=O)Nc1nc2ccc(OC(F)(F)F)cc2s1"
measured_endpoint = "inhibition of growth at 10 µM"
test_value = 59

[[record]]
smiles = "COc1ccc(/C=C\\c2cc(OC)c(OC)c(OC)c2)cc1OCC(=O)Nc1nc2ccc(C(F)(F)F)cc2s1"
measured_endpoint = "inhibition of growth at 10 µM"
test_value = 62

[[record]]
smiles = "COc1ccc2nc(NC(=O)COc3cc(/C=C\\c4cc(OC)c(OC)c(OC)c4)ccc3OC)sc2c1"
measured_endpoint = "inhibition of growth at 10 µM"
test_value = 53

[[record]]
smiles = "COc1ccc(/C=C\\c2cc(OC)c(OC)c(OC)c2)cc1OCC(=O)Nc1nc2c(C)cccc2s1"
measured_endpoint = "inhibition of growth at 10 µM"
test_value = 29

[[record]]
smiles = "CCOc1ccc2nc(NC(=O)COc3cc(/C=C\\c4cc(OC)c(OC)c(OC)c4)ccc3OC)sc2c1"
measured_endpoint = "inhibition of growth at 10 µM"
test_value = 35

[[record]]
smiles = "COc1ccc(/C=C\\c2cc(OC)c(OC)c(OC)c2)cc1OCC(=O)Nc1nc2ccc(Cl)cc2s1"
measured_endpoint = "inhibition of growth at 10 µM"
test_value = 21

[[record]]
smiles = "COc1ccc(/C=C\\c2cc(OC)c(OC)c(OC)c2)cc1OCC(=O)Nc1nc2cc(C)c(C)cc2s1"
measured_endpoint = "inhibition of growth at 10 µM"
test_value = 68

[[record]]
smiles = "COc1ccc(/C=C\\c2cc(OC)c(OC)c(OC)c2)cc1OCC(=O)Nc1ccc2ncsc2c1"
measured_endpoint = "inhibition of growth at 10 µM"
test_value = 19

